The binders listed here are annotated with their TOP MFI.
biological target: T1, human SIRPα v1 on CHOK1 cells (human, UniProt P78324 31-504); test: FACS, CHOK1 cells stably expressing human SIRPα v1
T1 construct: whole, on cells; also called CHOK1-hSIRPα v1; cell surface human SIRPα v1
T1 sequence (P78324 31-504): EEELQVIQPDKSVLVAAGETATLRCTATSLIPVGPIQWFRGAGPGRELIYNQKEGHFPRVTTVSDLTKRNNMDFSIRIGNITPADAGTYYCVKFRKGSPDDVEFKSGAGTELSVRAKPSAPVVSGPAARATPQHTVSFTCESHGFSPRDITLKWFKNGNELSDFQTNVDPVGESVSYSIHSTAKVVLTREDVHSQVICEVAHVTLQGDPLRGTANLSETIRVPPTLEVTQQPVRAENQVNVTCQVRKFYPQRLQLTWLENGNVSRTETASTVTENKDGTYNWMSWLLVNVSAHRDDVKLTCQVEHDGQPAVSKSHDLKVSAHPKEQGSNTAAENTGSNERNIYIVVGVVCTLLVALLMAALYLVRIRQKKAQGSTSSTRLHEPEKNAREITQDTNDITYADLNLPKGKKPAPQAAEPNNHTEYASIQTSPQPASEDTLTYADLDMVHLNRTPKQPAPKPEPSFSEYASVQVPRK

BINDER	QUANTITY UNIT	TOP MFI
Anti-SIRPα antibody C59 (antibody, V domains shown, Mouse variable regions; tested as purified chimeric antibody; also called 059c) VH: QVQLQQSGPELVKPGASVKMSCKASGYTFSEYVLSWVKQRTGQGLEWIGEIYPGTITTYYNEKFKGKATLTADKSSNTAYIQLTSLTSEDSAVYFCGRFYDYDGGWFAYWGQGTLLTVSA VL: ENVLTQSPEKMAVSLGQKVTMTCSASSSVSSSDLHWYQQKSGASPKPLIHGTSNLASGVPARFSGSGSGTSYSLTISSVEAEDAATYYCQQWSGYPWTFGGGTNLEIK	MFI	69800
Anti-SIRPα antibody C73 (antibody, human IgG4, V domains shown, Mouse variable regions; also called 073c; 073C) VH: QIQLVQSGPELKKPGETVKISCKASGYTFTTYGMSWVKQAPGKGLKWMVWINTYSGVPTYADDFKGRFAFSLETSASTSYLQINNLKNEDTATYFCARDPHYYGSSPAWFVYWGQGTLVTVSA VL: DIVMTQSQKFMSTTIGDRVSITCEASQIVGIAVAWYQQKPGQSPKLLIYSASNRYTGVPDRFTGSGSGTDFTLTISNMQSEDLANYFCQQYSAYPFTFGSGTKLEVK	MFI	67800
Anti-SIRPα antibody C15 (antibody, V domains shown, Mouse variable regions; tested as purified chimeric antibody; also called 015c) VH: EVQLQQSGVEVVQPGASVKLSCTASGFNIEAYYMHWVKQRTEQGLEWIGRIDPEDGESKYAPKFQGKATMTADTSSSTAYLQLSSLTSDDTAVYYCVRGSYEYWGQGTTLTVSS VL: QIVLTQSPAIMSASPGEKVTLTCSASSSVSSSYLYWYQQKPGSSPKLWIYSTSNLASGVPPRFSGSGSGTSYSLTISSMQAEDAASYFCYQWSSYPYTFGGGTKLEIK	MFI	80000
Anti-SIRPα antibody C25 (antibody, V domains shown, Mouse variable regions; also called 025c; 025) VH: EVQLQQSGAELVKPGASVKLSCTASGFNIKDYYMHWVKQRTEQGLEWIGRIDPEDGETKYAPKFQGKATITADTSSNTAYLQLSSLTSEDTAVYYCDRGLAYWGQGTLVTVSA VL: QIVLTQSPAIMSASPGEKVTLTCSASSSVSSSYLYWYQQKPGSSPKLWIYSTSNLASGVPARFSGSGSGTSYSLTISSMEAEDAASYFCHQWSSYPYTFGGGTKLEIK	MFI	77600
